// reported RP-LC retention time for each item listed
Experiment: gradient 5% acetonitrile 3 min, to 50% in 2 min, to 85% in 15 min, held 3 min, 100 µL/min
Details: column: Zorbax Extend-C18 2.1 x 50 mm; eluents: water / acetonitrile, 0.1% formic acid
Property Measured: RP-LC retention time

Compound: O=C1CCCc2cc(S(=O)(=O)NCc3cccc(Br)c3)ccc2N1
Property Measured: RP-LC retention time
Readout Value: 764 s
--
Compound: CCNC(=O)c1sc2nc(-c3ccc(F)cc3)c(NCCOC)n2c1C
Property Measured: RP-LC retention time
Readout Value: 777 s
--
Compound: Cc1cc(C(=O)Nc2cc(-c3ccco3)nn2CCO)no1
Property Measured: RP-LC retention time
Readout Value: 725 s
--
Compound: Cc1oc(-c2ccc(Cl)cc2)nc1CN1CCCC(C(=O)NC2CCCCC2C)C1 (stereo unspecified)
Property Measured: RP-LC retention time
Readout Value: 835 s
--
Compound: O=C(Nc1ccc(F)cc1F)C1CCCN(S(=O)(=O)c2c[nH]c(C(=O)N3CCCCCC3)c2)C1 (stereo unspecified)
Property Measured: RP-LC retention time
Readout Value: 897 s
--
Compound: CC1=NS(=O)(=O)N(C)C=C1C(=O)OCc1cccc(Cl)c1
Property Measured: RP-LC retention time
Readout Value: 968 s
--
Compound: COCCn1cc(CCNC(=O)Nc2ccc(C)c(Cl)c2)c2cccnc21
Property Measured: RP-LC retention time
Readout Value: 812 s
--
Compound: O=C(c1ccc[nH]1)N1CCC2(CC1)N=C(c1ccc(Cl)cc1)NO2
Property Measured: RP-LC retention time
Readout Value: 776 s
--
Compound: COc1ccccc1NC(=O)Cn1cnc2nc(N3CCCC(C(=O)NC4CC4)C3)sc2c1=O (stereo unspecified)
Property Measured: RP-LC retention time
Readout Value: 681 s
--
Compound: CCc1noc([C@@H]2CC(F)(F)CN2C(=O)c2occc2C)n1
Property Measured: RP-LC retention time
Readout Value: 840 s
--
Compound: COc1ccc(N2CCn3c(SCC(=O)Nc4nc5ccccc5s4)nnc32)cc1
Property Measured: RP-LC retention time
Readout Value: 742 s

The reported numbers originate from the METLIN SMRT retention time set (Domingo-Almenara et al. 2019).
